molecular target: human α7 nAChR (Homo sapiens, UniProt P36544); construct: expressed in transfected cells; test: Evaluation of PAM activity with human α7 nACh receptor stably expressing cells (aequorin luminescence, FDSS7000); assay type: cell-based; conditions: 10 μM test compound; ACh at EC20; ratio of RLU (Max-Min) to control wells; read-out: α7PAM (%) @10 μM
Sequence (P36544 23-502): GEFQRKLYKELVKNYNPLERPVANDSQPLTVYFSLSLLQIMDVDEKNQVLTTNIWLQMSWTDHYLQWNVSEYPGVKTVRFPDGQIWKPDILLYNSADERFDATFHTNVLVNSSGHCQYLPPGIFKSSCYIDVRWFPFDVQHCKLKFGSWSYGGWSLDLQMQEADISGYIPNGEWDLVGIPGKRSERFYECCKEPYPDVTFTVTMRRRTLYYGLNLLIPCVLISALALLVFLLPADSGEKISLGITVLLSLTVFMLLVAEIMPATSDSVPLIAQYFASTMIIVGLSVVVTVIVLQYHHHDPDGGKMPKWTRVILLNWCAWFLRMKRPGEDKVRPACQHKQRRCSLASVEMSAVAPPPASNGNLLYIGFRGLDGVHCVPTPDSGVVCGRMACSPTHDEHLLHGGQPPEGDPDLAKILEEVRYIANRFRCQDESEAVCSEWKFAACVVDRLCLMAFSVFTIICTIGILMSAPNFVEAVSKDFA
OBSERVABLE: activity at 10 µM (%)

Please review the following examples before continuing.
SUBSTANCE_SMILES: Cc1nc(-c2ccccc2)cn1C1CCN(C(=O)NC2CCCCC2)CC1
STUDY_SYSTEM: human α7 nAChR (Homo sapiens, UniProt P36544)
U: %
activity at 10 µM: 133

SUBSTANCE_SMILES: CC(C)(C(=O)N[C@H]1CC[C@@H](n2cnc(-c3ccc(Cl)cc3)c2)CC1)C(F)(F)F
STUDY_SYSTEM: human α7 nAChR (Homo sapiens, UniProt P36544)
U: %
activity at 10 µM: 211

SUBSTANCE_SMILES: O=C(NC1CCC(F)(F)CC1)N1CCC(n2cnc(-c3ccccc3)c2)CC1
STUDY_SYSTEM: human α7 nAChR (Homo sapiens, UniProt P36544)
U: %
activity at 10 µM: 823

SUBSTANCE_SMILES: O=C(NC1CCC(F)(F)CC1)N1[C@@H]2CC[C@H]1C[C@H](n1cnc(-c3cc(F)ccc3F)c1)C2
STUDY_SYSTEM: human α7 nAChR (Homo sapiens, UniProt P36544)
U: %
activity at 10 µM: 423

SUBSTANCE_SMILES: O=C(C1CCOCC1)N1CCC(n2cnc(-c3ccc(Cl)cc3)c2Cl)CC1
STUDY_SYSTEM: human α7 nAChR (Homo sapiens, UniProt P36544)
U: %
activity at 10 µM: 781

a. CC(C)(F)C(=O)N1CCC(n2cnc(-c3ccc(F)cc3)c2C#N)CC1
b. CC(C)(F)C(=O)N[C@H]1CC[C@@H](n2cnc(-c3cc(F)ccc3F)c2C#N)CC1
In: Between the two listed entries a and b , which has its activity at 10 µM at the higher number? Lab log: write the label of the selected item as the result.
Out: b
(b: 233%, a: 149%)

I. O=C(NC1CCOCC1)[C@H]1CC[C@@H](n2cnc(-c3ccccc3F)c2Cl)CC1
II. CC(C)(C)C(=O)N[C@H]1CC[C@@H](n2cnc(-c3ccc(OC(F)(F)F)cc3)c2)CC1
In: Consider I and II . Which of these has its activity at 10 µM at a higher number? Provide the label of your selected option as the answer.
Out: I
(I: 598%, II: 236%)

1. O=C(Nc1ccccc1F)N1CCC(n2cnc(-c3ccc(Cl)cc3)c2)CC1
2. CCc1c(-c2ccccc2)ncn1C1CCN(C(=O)NC2CCCCC2)CC1
In: Returns: the label, 1 or 2 , whose recorded activity at 10 µM is the lower number. // return label of chosen record
Out: 1
(1: 291%, 2: 452%)

A. O=C(NC1CCCC1)N1CCC(n2cnc(-c3ccccc3)c2)CC1
B. N#Cc1c(-c2ccc(F)cc2)ncn1C1CCN(C(=O)C2CC(F)(F)C2)CC1
In: Please let me know which one, A or B , has a lower measured activity at 10 µM value. Write down the label of the entry you select.
Out: A
(A: 193%, B: 594%)
